# tested_target: human activated kallikrein enzyme (Homo sapiens, UniProt P03952)
# Sequence (P03952 391-638 limits assumed): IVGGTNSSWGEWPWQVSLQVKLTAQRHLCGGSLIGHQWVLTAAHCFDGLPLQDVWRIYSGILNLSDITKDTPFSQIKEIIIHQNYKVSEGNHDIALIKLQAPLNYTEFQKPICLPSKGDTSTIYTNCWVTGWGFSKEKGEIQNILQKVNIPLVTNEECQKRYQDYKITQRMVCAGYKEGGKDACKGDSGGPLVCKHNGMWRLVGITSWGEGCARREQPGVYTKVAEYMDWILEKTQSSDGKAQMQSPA
# Sequence (P03952 20-390 partner limits assumed): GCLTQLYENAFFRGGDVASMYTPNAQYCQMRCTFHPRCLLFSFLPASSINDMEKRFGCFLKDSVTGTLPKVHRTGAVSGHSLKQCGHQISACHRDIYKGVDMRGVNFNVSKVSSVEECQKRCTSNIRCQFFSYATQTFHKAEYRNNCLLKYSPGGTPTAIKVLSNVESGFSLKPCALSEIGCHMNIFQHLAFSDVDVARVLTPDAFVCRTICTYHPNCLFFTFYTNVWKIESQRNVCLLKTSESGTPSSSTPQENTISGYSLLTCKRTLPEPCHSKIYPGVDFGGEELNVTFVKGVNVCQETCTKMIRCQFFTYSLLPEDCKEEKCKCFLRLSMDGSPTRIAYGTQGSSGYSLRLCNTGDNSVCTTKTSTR
# method_notes: Inhibition of human activated plasma kallikrein, fluorogenic PFR-AMC substrate, 500 pM enzyme format
# Type: biochemical
# conditions_used: 500 pM activated kallikrein; 300 μM PFR-AMC; 30 min preincubation; 10 min room temperature; pH 7.5; read-out: Primary Dose Response Assay: Average EC50
EC50 listing for selected compounds.

Some compounds with recorded EC50:
compound	tested_target	property_name	val
Cc1cc2c(N)nccc2c(C)c1CNc1cc(OCc2cc3cc(C4CC4)cc(CC(C)(C)C(N)=O)n3n2)ncn1	human activated kallikrein enzyme (Homo sapiens, UniProt P03952)	EC50	< 1 nM
CC(C)=Cc1ccc2nc(Cn3cc(C(=O)NCc4c(C)cc5c(N)nccc5c4C)cn3)cn2c1	human activated kallikrein enzyme (Homo sapiens, UniProt P03952)	EC50	1 to 10 nM
Cc1cc2c(N)nccc2c(C)c1CNC(=O)c1cn(Cc2ccc(CC(=O)N3CC4CC4C3)cc2)cc1F (stereo not shown)	human activated kallikrein enzyme (Homo sapiens, UniProt P03952)	EC50	< 1 nM

Now for a further compound.
Note to self: EC50 recorded for `Cc1cc2c(N)nccc2c(C)c1CNc1ncncc1NCc1cn2cc(C3CC3)ccc2n1` was 1 to 10 nM

Hello, the source for this data is patent US20260374754A1, in case you need it.
